# Protocol: Cytotoxicity against mouse HT22 cells assessed as cell survival at 10 uM after 18 hrs by MTT assay relative to control
# Type: cell-based, HT-22
# Condition notes: read-out: Survival
Quantity kind: viability at 18 h, 10 µM (%)
Give your result in % as a bare value.

Examples with answers:
CCCCOc1cc(OCCCN(CC)CC)ccc1NC(=O)c1cc(-c2ccc(Oc3ccc(F)cc3)cc2)nn1C: 10.3
CCN(CC)CCOc1cccc(Nc2nc(-c3ccc(Cl)cc3)cc(-c3ccc(Cl)cc3)n2)c1: 37.3

// moving on: another record for viability at 18 h, 10 µM
Request the reported viability at 18 h, 10 µM associated with CCN(CC)CCOc1ccc(OC)cc1NC(=O)c1nc(-c2ccc(F)cc2)cc(-c2ccc(F)cc2)n1
100

---

# Target of assay: UniProtKB Q15109
# Sequence (Q15109 whole entry, the tested form may be a part): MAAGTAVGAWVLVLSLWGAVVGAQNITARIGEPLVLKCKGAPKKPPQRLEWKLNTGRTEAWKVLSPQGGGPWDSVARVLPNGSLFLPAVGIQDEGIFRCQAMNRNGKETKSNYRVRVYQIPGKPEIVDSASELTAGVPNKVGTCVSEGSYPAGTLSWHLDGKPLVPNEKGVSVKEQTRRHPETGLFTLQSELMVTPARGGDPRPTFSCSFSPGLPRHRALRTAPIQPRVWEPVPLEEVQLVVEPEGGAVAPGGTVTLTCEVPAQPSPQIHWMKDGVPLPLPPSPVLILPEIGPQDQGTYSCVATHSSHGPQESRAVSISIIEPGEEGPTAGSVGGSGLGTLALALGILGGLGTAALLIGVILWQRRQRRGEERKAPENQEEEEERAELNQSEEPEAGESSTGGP
# Protocol: Inhibition of […] binding to human RAGE domain V expressed in CHO cells
# Assay type: cell-based
Quantity kind: pKi
FYI, pKi means -log10 of a concentration in mol per litre.

Give the reported pKi for O=C(c1ccc(Cl)cc1)N(Cc1ccccc1)C1CCCCC1 (system: UniProtKB Q15109).
6.64
